# Tested on: S. enterica typhimurium WT;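 also: active when median AUC fell below 0.1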
# protocolDescription: growth AUC normalised to DMSO control (median) (fraction of control); higher = less growth inhibition, active = hit call of the paper
# conditionParameters: 20 µM
Where a name gives a salt, the structure may show the parent alone.
measurementName: growth AUC normalised to DMSO control
// return a plain number; no unit text

In the examples that follow, each entry is paired with its recorded growth AUC normalised to DMSO control.
CCCCCCCCCCCCCCCC[N+](C)(C)CCN(Cc1ccc(OC)cc1)c1ncccn1 [Thonzonium bromide] : 1
C[N+](C)(C)CCOC(N)=O [Carbachol chloride] : 1.01
COc1cc(C)nc(-n2nc(C)cc2OC)n1 [Epirizole] : 1

Problem: I have this compound here, COc1cc(C(=O)NC2CCCNC2)cc(OC)c1OC (centres undefined) [Troxipide] , and I need its recorded growth AUC normalised to DMSO control.
Result: 0.998

Problem: I have this compound here, O=C(c1ccccc1)c1ccc2n1CCC2C(=O)O (centres undefined) , and I need its recorded growth AUC normalised to DMSO control.
Result: 1.01

Problem: I have this compound here, CCOC(=O)C(C)(N)Cc1cc(I)c(Oc2cc(I)c(O)c(I)c2)c(I)c1 (centres undefined) [Etiroxate hydrochloride] , and I need its recorded growth AUC normalised to DMSO control.
Result: 1.01

meta.source: the supplement of paper PMC12350171
